experiment: Inhibition of thioredoxin (unknown origin); parameters: species or system Homo sapiens; conditions: read-out: IC50
MEASURED_PROPERTY: IC50 (µM)
Express the result in µM but write the number alone.

// query Name the reported IC50 value associated with the compound CCCCCCCC/C=C1\C=C(C(F)(F)F)c2cc(O)c(O)cc21
// result 30.3
